System: M14
ASSAY REMARKS: NCI tumour cell line growth inhibition, 48 h
Activity calls are given as the source filed them. Cut-off read from the data, not from the text of the source: active = GI50 up to about 1.1 µM and inactive = higher.
The following compounds are shown together with reported GI50 values.

compound=CSC1=N/C(=C\c2ccc(Cl)cc2)C(=O)N1CN1CCOCC1 result="39 µM (inactive)"

Which measured GI50 belongs to CN(C)c1nncc2[nH]nnc12 , tested on M14?
> 100 µM (inactive)

Next compound: COC1=C2C[C@H](O)C(C)C[C@@]2(OC)OC1=O (stereo partly specified)
> 100 µM (inactive)

###

Entries and their measured GI50 follow.
Tested on: OVCAR-5
ASSAY REMARKS: NCI tumour cell line growth inhibition, 48 h
Activity calls are given as the source filed them. Cut-off read from the data, not from the text of the source: active = GI50 up to about 1.1 µM and inactive = higher.

Use the examples below as a reference point.
molecule=CCCCCC(=O)OC[n+]1ccc(-c2c(COC(=O)NC(C)C)c(COC(=O)NC(C)C)c3n2CCC3)cc1 measured_quantity=GI50 result="> 100 µM (inactive)"
molecule="NC(=O)C12CCC1C1CCCCC12N1CCOCC1 (stereo not given)" measured_quantity=GI50 result="> 100 µM (inactive)"
molecule=O=c1[nH]c2nc3ccccc3c(=O)n2/c1=C/c1ccc(O)cc1 measured_quantity=GI50 result="> 100 µM (inactive)"
molecule=CC1(C)C=C(/C=N/Nc2ccc(Br)cc2)C(C#N)=C(O)C1(C#N)C#N measured_quantity=GI50 result="> 100 µM (inactive)"
molecule="O=C(OC1OC2COC(=O)c3cc(O)c(O)c(O)c3-c3c(cc(O)c(O)c3O)C(=O)OC3C2OC(=O)[C@@]24CC(=O)[C@@](O)(OC25C(=O)O[C@H]2[C@@H](O)CO[C@@]25O)C2(O)Oc5c(O)c(O)cc(c5C24)C(=O)OC13)c1cc(O)c(O)c(O)c1 (stereo not given in full)" measured_quantity=GI50 result="47.2 µM (inactive)"

Returns the measured GI50 for the input molecule. Input: COc1nc(N(C)C)nc2c1[n+](C)cn2C
> 100 µM (inactive)

What do you have for O=c1ncccn1C1OC(CO)C(O)C1O (stereo not given) ?
> 100 µM (inactive)

Can you check Oc1ccc(Cl)cc1C1=NC(NCN2CCN(CNC3=NC(c4ccccc4)CC(c4cc(Cl)ccc4O)=N3)CC2)=NC(c2ccccc2)C1 (stereo not given) next?
50.9 µM (inactive)

Next molecule: CSc1nc(NC2OCC(OC(C)=O)C(OC(C)=O)C2OC(C)=O)c2c(n1)OCC2=O (stereo not given)
> 100 µM (inactive)

Please give the result for COC(=O)C1Cc2c(n(C)c3ccccc23)C(c2ccccc2)N1 (stereo not given) too.
> 100 µM (inactive)

Same lookup for CCN(CC)CCNc1ccc2ncn3c4ccc(O)cc4c(=O)c1c23 , please.
2.37 µM (inactive)

Field entry: CNc1c2c(c3nc4ccccc4c4c3c1N=C4)NCCC2=O
5.83 µM (inactive)

Follow-up entry: SCCCSCCSCCCSCCS
> 100 µM (inactive)

Proceed to Cn1cnnc1Sc1c([N+](=O)[O-])nc(-c2ccc([N+](=O)[O-])cc2)n1C
27.7 µM (inactive)

Now this one: O=c1[nH]c2cc([N+](=O)[O-])c(N(CCO)CCO)c([N+](=O)[O-])c2[nH]1
31.9 µM (inactive)

Okay, and CC(C)Cc1ccc(C(C)CC2=CCC(CN(C)C)C2=O)cc1 (stereo not given) ?
16.1 µM (inactive)
